measurement_label: intrinsic clearance, rat liver microsomes (mL/min/kg)

Completed entries (count: 3):
>>> value_measured("CNC(=O)Cc1nc(-c2cncc(C)c2)cs1")
14.5
>>> value_measured("Cc1csc(N(C(=O)c2cc3c(C)nn(C)c3s2)C2CC2)n1")
255
>>> value_measured("COc1ccncc1NCc1cscn1")
25.4

(a) OCCCCCn1cc(-c2ccccc2-c2ccco2)nn1
(b) NC(=O)COc1ccccc1C(=O)Nc1cccc(-c2ccc3ccccc3c2)n1
Ask | Consider a and b . Which of these has its intrinsic clearance, rat liver microsomes at a higher number? In your reply, give the label of the chosen option.
Reply | b
(b: 1060 mL/min/kg, a: 235 mL/min/kg)

====

measurement_label: MDR1-MDCK efflux ratio

>>> value_measured("CCC(=O)Nc1cccc(Oc2nc(Nc3ccc(N4CCN(C)CC4)cc3OC)ncc2Cl)c1")
14
>>> value_measured("COc1cccc(Cc2cnc(N)s2)c1")
0.671
>>> value_measured("CCN(CCOC)C(=O)Nc1ccc2occc(=O)c2c1")
1.32
>>> value_measured("Cc1cccc(NCCN2C(=O)CCC2=O)n1")
0.667
>>> value_measured("N#CCCCN1CCC(c2c[nH]c3ccccc23)CC1")
0.46

(I) CCOc1ncccc1-c1cc(Cl)ccc1O
(II) CN(CC1(O)CCCC1)c1ncccn1
(III) COc1cc2c(cc1OC)CN(C(=O)C1CCCN(S(=O)(=O)c3ccc(F)cc3)C1)CC2 (centres undefined)
(IV) Cc1cc(CCCC(=O)NC[C@H]2CC[C@H](c3ccc(C(N)=O)c(C)n3)CC2)ccc1F
Ask | // ranking: key=MDR1-MDCK efflux ratio, reverse=True Kindly provide the labels arranged according to the requested ordering.
Reply | IV, III, II, I

====

measurement_label: intrinsic clearance, rat liver microsomes

Completed entries (count: 2):
>>> value_measured("CC(=O)NCc1cc2n(n1)CCN(C1Cc3ccccc3C1)C2")
"≤ 10.7 mL/min/kg"
>>> value_measured("COc1cc2cc(N)c(C3CCNCC3)nc2cc1OC")
"≤ 10.7 mL/min/kg"

Now let's try a different one.
Ask | Could you share which intrinsic clearance, rat liver microsomes value was measured for CN(C)S(=O)(=O)CCCN1CCC(CCC(N)=O)CC1 ?
Reply | ≤ 10.7 mL/min/kg

====

measurement_label: MDR1-MDCK efflux ratio

Completed entries (count: 2):
>>> value_measured("COc1cc([C@@H]2c3cc4c(cc3[C@H](O)[C@H]3COC(=O)[C@@H]23)OCO4)cc(OC)c1OC")
0.444
>>> value_measured("c1nc(NC2CCN(C3CC3)CC2)c2sccc2n1")
1.24

(A) CC(C)(C)n1ncc(C(=O)N2CCCn3ncnc32)c1C(F)(F)F
(B) CCCNC(=O)c1c(C)nn(-c2ccccc2)c1C
(C) Cn1cc(C2CCN(CC(=O)N3CCc4sccc4C3)CC2)cn1
(D) Cc1nn(C)cc1CNc1nc(-c2cnccn2)nc2sc3c(c12)CCCC3
(E) COc1cc2ncn(-c3cc(OCc4ccccc4S(C)(=O)=O)c(C#N)s3)c2cc1OC
Ask | Would you mind ranking these compounds by ascending MDR1-MDCK efflux ratio? Kindly provide the labels arranged according to the requested ordering.
Reply | B, A, D, C, E

====

# condition_context: pH 6.8
measurement_label: aqueous solubility (µg/mL)

>>> value_measured("O=C(Cn1c(-c2ccc(F)cc2)nc2ccccc21)N1CCOCC1")
54.6

(1) Cc1cc(C)nc(CNC(=O)CC2CCNCC2)n1
(2) COc1cccc(-c2ocnc2C(=O)Nc2ccc(-c3ccc(C)o3)cc2)c1
Ask | Consider 1 and 2 . Which of these has its aqueous solubility at a higher number? In your reply, give the label of the chosen option.
Reply | 1
